Where do the numbers come from? From the NIST ThermoML archive (doi:10.1016/j.jct.2016.07.005).

runDescription: xn = mol fraction of the nth substance listed
measurementContext: 308.15 K; 100 kPa; Liquid; Concentric cylinders viscometry; x1 = 0.9
± gives the expanded uncertainty stated by the source.
property: viscosity

May I ask what viscosity has been recorded for CN1CCC[C@H]1c1cccnc1 [(-)-3-(N-methylpyrrolidino)pyridine] + OCCCO ?
4.2 ± 0.088 mPa·s

May I ask what viscosity has been recorded for CN1CCC[C@H]1c1cccnc1 [(-)-3-(N-methylpyrrolidino)pyridine] + CCC(C)O ?
3.128 ± 0.066 mPa·s

May I ask what viscosity has been recorded for CN1CCC[C@H]1c1cccnc1 [(-)-3-(N-methylpyrrolidino)pyridine] + CCCCO ?
3.013 ± 0.063 mPa·s

May I ask what viscosity has been recorded for CN1CCC[C@H]1c1cccnc1 [(-)-3-(N-methylpyrrolidino)pyridine] + CC(O)CO ?
4.12 ± 0.086 mPa·s

###

Exercise: state measured mass density for each of the compounds provided.
runDescription: xn = mol fraction of the nth substance listed
measurementContext: 298.15 K; 100 kPa; Liquid; Vibrating tube method; x1 = 0.5
± gives the expanded uncertainty stated by the source.
Number first, unit second.

May I ask what mass density has been recorded for CN1CCC[C@H]1c1cccnc1 [(-)-3-(N-methylpyrrolidino)pyridine] + CCC(C)O ?
937.354 ± 1 kg/m3

May I ask what mass density has been recorded for CN1CCC[C@H]1c1cccnc1 [(-)-3-(N-methylpyrrolidino)pyridine] + OCCCO ?
1028.72 ± 1.1 kg/m3

May I ask what mass density has been recorded for CN1CCC[C@H]1c1cccnc1 [(-)-3-(N-methylpyrrolidino)pyridine] + CC(O)CO ?
1020.54 ± 1 kg/m3

May I ask what mass density has been recorded for CN1CCC[C@H]1c1cccnc1 [(-)-3-(N-methylpyrrolidino)pyridine] + CCCCO ?
939.205 ± 1 kg/m3

###

runDescription: xn = mol fraction of the nth substance listed
measurementContext: 308.15 K; 100 kPa; Liquid; Concentric cylinders viscometry; x1 = 0.3
± gives the expanded uncertainty stated by the source.
Exercise: state measured viscosity for each of the compounds provided.

May I ask what viscosity has been recorded for CN1CCC[C@H]1c1cccnc1 [(-)-3-(N-methylpyrrolidino)pyridine] + CC(O)CO ?
18.56 ± 0.38 mPa·s

May I ask what viscosity has been recorded for CN1CCC[C@H]1c1cccnc1 [(-)-3-(N-methylpyrrolidino)pyridine] + OCCCO ?
25.12 ± 0.55 mPa·s

May I ask what viscosity has been recorded for CN1CCC[C@H]1c1cccnc1 [(-)-3-(N-methylpyrrolidino)pyridine] + CCCCO ?
2.346 ± 0.049 mPa·s

May I ask what viscosity has been recorded for CN1CCC[C@H]1c1cccnc1 [(-)-3-(N-methylpyrrolidino)pyridine] + CCC(C)O ?
2.367 ± 0.049 mPa·s

###

runDescription: xn = mol fraction of the nth substance listed
measurementContext: 318.15 K; 100 kPa; Liquid; Vibrating tube method; x1 = 0.5
property: mass density (kg/m3)
Give just the numeric value; kg/m3 need not be written.

May I ask what mass density has been recorded for CN1CCC[C@H]1c1cccnc1 [(-)-3-(N-methylpyrrolidino)pyridine] + CCCCO ?
922.862

May I ask what mass density has been recorded for CN1CCC[C@H]1c1cccnc1 [(-)-3-(N-methylpyrrolidino)pyridine] + CC(O)CO ?
1003.69

May I ask what mass density has been recorded for CN1CCC[C@H]1c1cccnc1 [(-)-3-(N-methylpyrrolidino)pyridine] + CCC(C)O ?
920.616

May I ask what mass density has been recorded for CN1CCC[C@H]1c1cccnc1 [(-)-3-(N-methylpyrrolidino)pyridine] + OCCCO ?
1012.88

###

Exercise: state measured viscosity for each of the compounds provided.
measurementContext: 323.15 K; 100 kPa; Liquid; Concentric cylinders viscometry
± gives the expanded uncertainty stated by the source.

May I ask what viscosity has been recorded for OCCCO ?
15.21 ± 0.34 mPa·s

May I ask what viscosity has been recorded for CN1CCC[C@H]1c1cccnc1 [(-)-3-(N-methylpyrrolidino)pyridine] ?
2.195 ± 0.046 mPa·s

May I ask what viscosity has been recorded for CCC(C)O (stereo not given) ?
1.332 ± 0.028 mPa·s

May I ask what viscosity has been recorded for CC(O)CO (stereo not given) ?
12.75 ± 0.26 mPa·s

May I ask what viscosity has been recorded for CCCCO ?
1.372 ± 0.029 mPa·s

###

runDescription: refractive index (Na D-line) (dimensionless); xn = mol fraction of the nth substance listed
measurementContext: 313.15 K; 100 kPa; Liquid; Standard Abbe refractometry; x1 = 0.9
property: refractive index
Just the number, please, no unit attached.

May I ask what refractive index has been recorded for CN1CCC[C@H]1c1cccnc1 [(-)-3-(N-methylpyrrolidino)pyridine] + CCC(C)O ?
1.50978

May I ask what refractive index has been recorded for CN1CCC[C@H]1c1cccnc1 [(-)-3-(N-methylpyrrolidino)pyridine] + CC(O)CO ?
1.51312

May I ask what refractive index has been recorded for CN1CCC[C@H]1c1cccnc1 [(-)-3-(N-methylpyrrolidino)pyridine] + CCCCO ?
1.51035

May I ask what refractive index has been recorded for CN1CCC[C@H]1c1cccnc1 [(-)-3-(N-methylpyrrolidino)pyridine] + OCCCO ?
1.51476

###

Exercise: state measured viscosity for each of the compounds provided.
runDescription: xn = mol fraction of the nth substance listed
measurementContext: 313.15 K; 100 kPa; Liquid; Concentric cylinders viscometry; x1 = 0.5
Give just the numeric value; mPa·s need not be written.

May I ask what viscosity has been recorded for CN1CCC[C@H]1c1cccnc1 [(-)-3-(N-methylpyrrolidino)pyridine] + CCCCO ?
2.316

May I ask what viscosity has been recorded for CN1CCC[C@H]1c1cccnc1 [(-)-3-(N-methylpyrrolidino)pyridine] + CC(O)CO ?
9.302

May I ask what viscosity has been recorded for CN1CCC[C@H]1c1cccnc1 [(-)-3-(N-methylpyrrolidino)pyridine] + CCC(C)O ?
2.373

May I ask what viscosity has been recorded for CN1CCC[C@H]1c1cccnc1 [(-)-3-(N-methylpyrrolidino)pyridine] + OCCCO ?
12.36

###

runDescription: xn = mol fraction of the nth substance listed
measurementContext: 303.15 K; 100 kPa; Liquid; Concentric cylinders viscometry; x1 = 0.9
property: viscosity (mPa·s)
Give just the numeric value; mPa·s need not be written.

May I ask what viscosity has been recorded for CN1CCC[C@H]1c1cccnc1 [(-)-3-(N-methylpyrrolidino)pyridine] + OCCCO ?
4.943

May I ask what viscosity has been recorded for CN1CCC[C@H]1c1cccnc1 [(-)-3-(N-methylpyrrolidino)pyridine] + CC(O)CO ?
4.834

May I ask what viscosity has been recorded for CN1CCC[C@H]1c1cccnc1 [(-)-3-(N-methylpyrrolidino)pyridine] + CCCCO ?
3.433

May I ask what viscosity has been recorded for CN1CCC[C@H]1c1cccnc1 [(-)-3-(N-methylpyrrolidino)pyridine] + CCC(C)O ?
3.591

###

runDescription: xn = mol fraction of the nth substance listed
measurementContext: 323.15 K; 100 kPa; Liquid; Concentric cylinders viscometry; x1 = 0.5
property: viscosity (mPa·s)
Give just the numeric value; mPa·s need not be written.

May I ask what viscosity has been recorded for CN1CCC[C@H]1c1cccnc1 [(-)-3-(N-methylpyrrolidino)pyridine] + CCCCO ?
1.882

May I ask what viscosity has been recorded for CN1CCC[C@H]1c1cccnc1 [(-)-3-(N-methylpyrrolidino)pyridine] + OCCCO ?
8.437

May I ask what viscosity has been recorded for CN1CCC[C@H]1c1cccnc1 [(-)-3-(N-methylpyrrolidino)pyridine] + CCC(C)O ?
1.888

May I ask what viscosity has been recorded for CN1CCC[C@H]1c1cccnc1 [(-)-3-(N-methylpyrrolidino)pyridine] + CC(O)CO ?
6.339

###

runDescription: xn = mol fraction of the nth substance listed
measurementContext: 293.15 K; 100 kPa; Liquid; Vibrating tube method; x1 = 0.9
property: mass density (kg/m3)
Give just the numeric value; kg/m3 need not be written.

May I ask what mass density has been recorded for CN1CCC[C@H]1c1cccnc1 [(-)-3-(N-methylpyrrolidino)pyridine] + CC(O)CO ?
1012.96

May I ask what mass density has been recorded for CN1CCC[C@H]1c1cccnc1 [(-)-3-(N-methylpyrrolidino)pyridine] + CCCCO ?
1000.01

May I ask what mass density has been recorded for CN1CCC[C@H]1c1cccnc1 [(-)-3-(N-methylpyrrolidino)pyridine] + OCCCO ?
1014.74

May I ask what mass density has been recorded for CN1CCC[C@H]1c1cccnc1 [(-)-3-(N-methylpyrrolidino)pyridine] + CCC(C)O ?
1000.07

###

measurementContext: 313.15 K; 100 kPa; Liquid; Vibrating tube method
property: mass density (kg/m3)
Give just the numeric value; kg/m3 need not be written.

May I ask what mass density has been recorded for CCC(C)O (stereo not given) [butan-2-ol] ?
790.127

May I ask what mass density has been recorded for CC(O)CO (stereo not given) [1,2-propanediol] ?
1021.39

May I ask what mass density has been recorded for CN1CCC[C@H]1c1cccnc1 [(-)-3-(N-methylpyrrolidino)pyridine] ?
994.014

May I ask what mass density has been recorded for OCCCO [propan-1,3-diol] ?
1040.49

May I ask what mass density has been recorded for CCCCO [butan-1-ol] ?
794.372
